Target: WT LCAT (Homo sapiens, UniProt P04180)
Assay: MUP hydrolysis (esterase) assay
Format: biochemical
Set-up: hydrolysis of 4-methylumbelliferyl palmitate (MUP) by full-length LCAT; made in house; host or cells: HEK293F (transient transfection, secreted)
Conditions: full-length WT LCAT; read-out: EC50, MUP hydrolysis
Measured property: EC50

Please report the recorded EC50 for N#Cc1cnc(N2CCC(c3n[nH]c4c3C(O)(C(F)(F)F)CC(=O)N4)CC2)cc1C(F)(F)F (stereo not shown) .
~150 nM

====

Biological target: WT LCAT (Homo sapiens, UniProt P04180)
Experiment: MST binding assay
Details: read-out: Kd, binding to LCAT via microscale thermophoresis
Measured property: Kd (nM)
State the answer as a number, implicitly in nM.

Could you share which Kd value was measured for N#Cc1cnc(N2CCC(c3n[nH]c4c3C(O)(C(F)(F)F)CC(=O)N4)CC2)cc1C(F)(F)F (stereo not shown) [compound 1] ?
100

====

Biological target: LCAT Y51S (Homo sapiens, UniProt P04180, Y75S)
Construct: hydrolysis of 4-methylumbelliferyl palmitate (MUP) by full-length LCAT
Test: MUP hydrolysis (esterase) assay
Conditions: Y51S; compound titrated from 0.04 to 9.5 μM
Measured property: pEC50
By convention, pEC50 is the negative base-10 log of a molar concentration.

The cases that follow already have their pEC50 on record.
Would you kindly share the measured pEC50 for N#Cc1cnc(N2CCC(c3n[nH]c4c3C(O)(C(F)(F)F)CC(=O)N4)CC2)cc1C(F)(F)F (centres unmarked) ?
6.23

Any idea what pEC50 was measured for O=C1CC(O)(C(F)(F)F)c2c(C3CCN(c4cnc(C(F)(F)F)cn4)CC3)n[nH]c2N1 (centres unmarked) ?
6.13

// next entry
Quick one: pEC50 of O=C1CC(O)(C(F)(F)F)c2c(ncn2C2CCN(c3cnc(C(F)(F)F)cn3)CC2)N1 (centres unmarked) ?
5.80

====

Biological target: LCAT R244A (Homo sapiens, UniProt P04180, R268A)
Construct: hydrolysis of 4-methylumbelliferyl palmitate (MUP) by full-length LCAT; made in house; host or cells: HEK293F (transient transfection, secreted)
Assay: MUP hydrolysis (esterase) assay
Type: biochemical
Conditions: read-out: EC50, MUP esterase assay
Measured property: EC50

Quick one: EC50 of N#Cc1cnc(N2CCC(c3n[nH]c4c3C(O)(C(F)(F)F)CC(=O)N4)CC2)cc1C(F)(F)F (stereo not shown) ?
~0.15 µM

====

Target: LCAT R244H (Homo sapiens, UniProt P04180, R268H)
Construct: hydrolysis of 4-methylumbelliferyl palmitate (MUP) by full-length LCAT; made in house; host or cells: HEK293F (transient transfection, secreted)
Experiment: DHE acyltransferase assay with peptide-based HDLs
Type: biochemical
Details: compound 2 titrated from 0.004 to 10 μM, DHE 50 μM
Measured property: pEC50
// field semantics: pEC50 = negative decimal log of concentration (mol/L)

Can you look up the measured pEC50 of O=C1CC(O)(C(F)(F)F)c2c(C3CCN(c4cnc(C(F)(F)F)cn4)CC3)n[nH]c2N1 (stereo not shown) [compound 2] for me?
5.34

====

Target: LCAT Y51S (Homo sapiens, UniProt P04180, Y75S)
Construct: hydrolysis of 4-methylumbelliferyl palmitate (MUP) by full-length LCAT; made in house; host or cells: HEK293F (transient transfection, secreted)
Sequence (P04180 25-440 Y75S): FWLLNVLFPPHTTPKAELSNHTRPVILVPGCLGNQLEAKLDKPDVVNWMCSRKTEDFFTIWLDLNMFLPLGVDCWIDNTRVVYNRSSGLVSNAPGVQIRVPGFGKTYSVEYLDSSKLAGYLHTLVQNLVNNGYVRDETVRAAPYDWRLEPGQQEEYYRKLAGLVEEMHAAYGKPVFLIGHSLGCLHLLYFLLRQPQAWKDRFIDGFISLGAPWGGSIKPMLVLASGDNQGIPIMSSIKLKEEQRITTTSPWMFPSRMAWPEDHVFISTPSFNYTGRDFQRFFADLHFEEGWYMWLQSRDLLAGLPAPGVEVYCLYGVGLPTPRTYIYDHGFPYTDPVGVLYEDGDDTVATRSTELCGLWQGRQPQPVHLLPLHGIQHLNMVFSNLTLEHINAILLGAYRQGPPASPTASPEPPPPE
Assay: MUP hydrolysis (esterase) assay
Assay type: biochemical
Details: Y51S; compound titrated from 0.04 to 9.5 μM
The following molecules are shown together with reported Fold activation, MUP esterase assay values.
Report only the number, with the unit fold understood.

Worked examples follow.
Which Fold activation, MUP esterase assay is listed for O=C1CC(O)(C(F)(F)F)c2c(C3CCN(c4cnc(C(F)(F)F)cn4)CC3)noc2N1 (stereo not drawn) ?
1.1

What Fold activation, MUP esterase assay value was documented for this molecule, "O=c1cc(C(F)(F)F)c2c(ncn2C2CCN(c3cnc(C(F)(F)F)cn3)CC2)[nH]1" ?
2.8

Name the recorded Fold activation, MUP esterase assay for O=C1CC(O)(C(F)(F)F)c2c(C3CCN(c4cnc(C(F)(F)F)cn4)CC3)n[nH]c2N1 (stereo not drawn) .
1.8

Query (molecule): N#Cc1cnc(N2CCC(c3n[nH]c4c3C(O)(C(F)(F)F)CC(=O)N4)CC2)cc1C(F)(F)F (stereo not drawn) ; field requested: Fold activation, MUP esterase assay
1.9

Consider the additional molecule presented here.
Need Fold activation, MUP esterase assay of O=C1CC(O)(C(F)(F)F)c2c(ncn2C2CCN(c3cnc(C(F)(F)F)cn3)CC2)N1 (stereo not drawn) , thanks.
1.9
